Target: human dopamine transporter (DAT) (Homo sapiens (Human))
Sequence (Q01959 whole entry): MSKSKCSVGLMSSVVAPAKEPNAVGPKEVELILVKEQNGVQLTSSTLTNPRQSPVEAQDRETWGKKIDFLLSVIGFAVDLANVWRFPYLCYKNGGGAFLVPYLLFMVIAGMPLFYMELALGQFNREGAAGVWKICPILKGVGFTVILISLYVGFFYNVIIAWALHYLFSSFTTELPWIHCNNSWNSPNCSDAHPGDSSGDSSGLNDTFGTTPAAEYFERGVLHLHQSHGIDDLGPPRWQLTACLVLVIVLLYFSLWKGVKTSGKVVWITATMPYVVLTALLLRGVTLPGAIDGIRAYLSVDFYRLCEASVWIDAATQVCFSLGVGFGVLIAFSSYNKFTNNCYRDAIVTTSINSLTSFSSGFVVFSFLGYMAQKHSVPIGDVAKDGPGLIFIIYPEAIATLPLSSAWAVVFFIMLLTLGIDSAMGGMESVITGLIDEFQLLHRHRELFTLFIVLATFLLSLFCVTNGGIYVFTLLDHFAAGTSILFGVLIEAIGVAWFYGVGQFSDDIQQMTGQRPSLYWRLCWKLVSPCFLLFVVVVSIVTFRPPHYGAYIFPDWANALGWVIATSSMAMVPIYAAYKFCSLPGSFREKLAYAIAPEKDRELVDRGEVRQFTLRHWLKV
Assay: Scintillation Proximity Assay (SPA) for human DAT binding ([3H]WIN-35,428)
Conditions: recombinant human DAT, CHO
Cut-off 8 on pIC50 DAT, inclusive. At or above means Met; below means Not met.

**Q:** In plain terms: is recorded pIC50 DAT at least 8 for NCC1(O)CCN(c2nc(Oc3cccc(F)c3)cc(C(F)(F)F)n2)CC1 ?
**A:** Met

**Q:** In plain terms: is recorded pIC50 DAT at least 8 for Cl.Fc1cccc(Oc2cc(C(F)(F)F)nc(N3CCC4NCCCC4C3)n2)c1 (stereo not drawn) ?
**A:** Met

**Q:** In plain terms: is recorded pIC50 DAT at least 8 for O=C(NCC1(O)CCN(c2nc(Oc3cccc(F)c3)cc(C(F)(F)F)n2)CC1)C1CNC1 ?
**A:** Met

**Q:** In plain terms: is recorded pIC50 DAT at least 8 for NCC1(O)CCN(c2cc(Oc3cccc(F)c3)cc(F)c2F)CC1 ?
**A:** Met

**Q:** In plain terms: is recorded pIC50 DAT at least 8 for NCC1(O)CCN(c2cc(F)cc(Oc3cccc(F)c3)c2F)CC1 ?
**A:** Met

**Q:** In plain terms: is recorded pIC50 DAT at least 8 for CN(C)CC1(O)CCN(c2nc(Oc3cccc(F)c3)cc(C(F)(F)F)n2)CC1 ?
**A:** Met

**Q:** In plain terms: is recorded pIC50 DAT at least 8 for OC1(CN2CCC(F)(F)C2)CCN(c2nc(Oc3cccc(F)c3)cc(C(F)(F)F)n2)CC1 ?
**A:** Not met

**Q:** In plain terms: is recorded pIC50 DAT at least 8 for NC1(CO)CCN(c2nc(Oc3cccc(F)c3)cc(C(F)(F)F)n2)CC1 ?
**A:** Met

**Q:** In plain terms: is recorded pIC50 DAT at least 8 for NCC1(O)CCN(c2cc(F)cc(Oc3cccc(F)c3)c2)CC1 ?
**A:** Met

**Q:** In plain terms: is recorded pIC50 DAT at least 8 for O=C(NCC1(O)CCN(c2nc(Oc3cccc(F)c3)cc(C(F)(F)F)n2)C1)C1CNC1 (stereo not drawn) ?
**A:** Met

**Q:** In plain terms: is recorded pIC50 DAT at least 8 for CNCC1(O)CCN(c2nc(Oc3cccc(F)c3)cc(C(F)(F)F)n2)CC1 ?
**A:** Met

**Q:** In plain terms: is recorded pIC50 DAT at least 8 for OC1(CNC2CC2)CCN(c2nc(Oc3cccc(F)c3)cc(C(F)(F)F)n2)C1 (stereo not drawn) ?
**A:** Met

**Q:** In plain terms: is recorded pIC50 DAT at least 8 for CC1CCC(C)N1CC1(O)CCN(c2nc(Oc3cccc(F)c3)cc(C(F)(F)F)n2)CC1 (stereo not drawn) ?
**A:** Not met

**Q:** In plain terms: is recorded pIC50 DAT at least 8 for O=C1CCCN1CC1(O)CCN(c2nc(Oc3cccc(F)c3)cc(C(F)(F)F)n2)CC1 ?
**A:** Not met

**Q:** In plain terms: is recorded pIC50 DAT at least 8 for CC(C)OCC(=O)NCC1(O)CCN(c2nc(Oc3cccc(F)c3)cc(C(F)(F)F)n2)CC1 ?
**A:** Not met

**Q:** In plain terms: is recorded pIC50 DAT at least 8 for NCC1(F)CCN(c2nc(Oc3cccc(F)c3)cc(C(F)(F)F)n2)CC1 ?
**A:** Met

**Q:** In plain terms: is recorded pIC50 DAT at least 8 for O=C(NCC1(O)CCN(c2nc(Oc3cccc(F)c3)cc(C(F)(F)F)n2)CC1)c1cn[nH]c1 ?
**A:** Not met

**Q:** In plain terms: is recorded pIC50 DAT at least 8 for OC1(CN2CCCC2)CCN(c2nc(Oc3cccc(F)c3)cc(C(F)(F)F)n2)CC1 ?
**A:** Met

**Q:** In plain terms: is recorded pIC50 DAT at least 8 for CC(=O)NCC1(O)CCN(c2nc(Oc3cccc(F)c3)cc(C(F)(F)F)n2)CC1 ?
**A:** Not met

**Q:** In plain terms: is recorded pIC50 DAT at least 8 for NCC1(O)CCN(c2nc(Oc3cccc(F)c3)cc(C(F)(F)F)n2)C1 (stereo not drawn) ?
**A:** Met

----------
Target: human dopamine transporter (DAT) (Homo sapiens (Human))
Experiment: Scintillation Proximity Assay (SPA) for human DAT binding ([3H]WIN-35,428)
Conditions: recombinant human DAT, CHO
Cut-off 8 on pIC50 DAT, inclusive. At or above means class 1; below means class 0.

**Q:** In plain terms: is recorded pIC50 DAT at least 8 for O=C(NCC1(O)CCN(c2nc(Oc3cccc(F)c3)cc(C(F)(F)F)n2)CC1)c1ccccc1 ?
**A:** class 0

**Q:** In plain terms: is recorded pIC50 DAT at least 8 for Cl.NCC1(O)CCN(c2nc(Oc3cccc(F)c3)cc(C(F)(F)F)n2)CC1 ?
**A:** class 1

**Q:** In plain terms: is recorded pIC50 DAT at least 8 for CN(CC1(O)CCN(c2nc(Oc3cccc(F)c3)cc(C(F)(F)F)n2)CC1)C1CC1 ?
**A:** class 0

**Q:** In plain terms: is recorded pIC50 DAT at least 8 for CC(C)C(=O)NCC1(O)CCN(c2nc(Oc3cccc(F)c3)cc(C(F)(F)F)n2)C1 (centres unmarked) ?
**A:** class 0

**Q:** In plain terms: is recorded pIC50 DAT at least 8 for O=C(CC1CC1)NCC1(O)CCN(c2nc(Oc3cccc(F)c3)cc(C(F)(F)F)n2)CC1 ?
**A:** class 0

----------
Biological target: human ERG potassium channel (hERG) (Homo sapiens (Human), UniProt Q12809)
Sequence (Q12809 whole entry): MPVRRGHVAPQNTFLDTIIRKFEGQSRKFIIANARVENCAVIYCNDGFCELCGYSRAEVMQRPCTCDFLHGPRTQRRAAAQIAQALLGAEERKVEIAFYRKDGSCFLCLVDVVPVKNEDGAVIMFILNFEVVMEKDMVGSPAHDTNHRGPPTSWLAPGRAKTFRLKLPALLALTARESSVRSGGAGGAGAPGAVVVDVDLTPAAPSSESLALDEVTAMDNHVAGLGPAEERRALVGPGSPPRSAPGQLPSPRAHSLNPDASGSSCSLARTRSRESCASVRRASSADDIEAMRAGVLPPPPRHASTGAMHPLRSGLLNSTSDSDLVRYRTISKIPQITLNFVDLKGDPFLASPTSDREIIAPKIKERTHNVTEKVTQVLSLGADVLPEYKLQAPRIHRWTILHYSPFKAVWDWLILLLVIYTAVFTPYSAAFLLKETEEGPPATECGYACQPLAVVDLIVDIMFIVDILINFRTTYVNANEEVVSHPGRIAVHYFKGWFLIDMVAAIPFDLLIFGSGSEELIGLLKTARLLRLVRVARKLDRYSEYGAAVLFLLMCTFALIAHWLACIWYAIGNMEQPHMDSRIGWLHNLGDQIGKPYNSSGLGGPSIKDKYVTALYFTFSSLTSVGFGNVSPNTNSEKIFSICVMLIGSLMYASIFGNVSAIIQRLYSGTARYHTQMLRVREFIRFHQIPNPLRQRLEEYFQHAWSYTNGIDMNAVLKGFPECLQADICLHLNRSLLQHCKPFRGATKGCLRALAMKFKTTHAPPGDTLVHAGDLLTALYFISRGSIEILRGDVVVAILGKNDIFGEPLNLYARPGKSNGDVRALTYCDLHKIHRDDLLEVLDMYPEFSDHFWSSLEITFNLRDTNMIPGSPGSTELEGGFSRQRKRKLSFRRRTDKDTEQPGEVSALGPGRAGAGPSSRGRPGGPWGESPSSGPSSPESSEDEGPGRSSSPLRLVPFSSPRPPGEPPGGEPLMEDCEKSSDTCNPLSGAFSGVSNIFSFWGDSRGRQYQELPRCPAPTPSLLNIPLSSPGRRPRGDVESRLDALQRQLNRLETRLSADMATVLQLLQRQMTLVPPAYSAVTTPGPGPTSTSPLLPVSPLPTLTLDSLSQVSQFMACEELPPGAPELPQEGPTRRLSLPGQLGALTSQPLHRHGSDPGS
Experiment: hERG channel tail current recording using Rapid ICE automated patch-clamp
Type: cell-based
Details: HEK293 cells stably transfected with hERG
Cut-off 6 on pIC50 hERG, inclusive. At or above means Fulfilled; below means Not fulfilled.

**Q:** In plain terms: is recorded pIC50 hERG at least 6 for Cl.Fc1cccc(Oc2cc(C(F)(F)F)nc(N3CCC4NCCCC4C3)n2)c1 (centres unmarked) ?
**A:** Fulfilled

**Q:** In plain terms: is recorded pIC50 hERG at least 6 for Fc1cccc(Oc2cc(C(F)(F)F)nc(N3CCc4nc[nH]c4C3)n2)c1 ?
**A:** Not fulfilled

**Q:** In plain terms: is recorded pIC50 hERG at least 6 for CN(C)CC1(O)CCN(c2nc(Oc3cccc(F)c3)cc(C(F)(F)F)n2)CC1 ?
**A:** Fulfilled

**Q:** In plain terms: is recorded pIC50 hERG at least 6 for NCC(=O)NCC1(O)CCN(c2nc(Oc3cccc(F)c3)cc(C(F)(F)F)n2)CC1 ?
**A:** Not fulfilled

**Q:** In plain terms: is recorded pIC50 hERG at least 6 for O=C(NCC1(O)CCN(c2nc(Oc3cccc(F)c3)cc(C(F)(F)F)n2)CC1)c1ccccc1 ?
**A:** Not fulfilled

**Q:** In plain terms: is recorded pIC50 hERG at least 6 for NCC1(O)CCN(c2nc(Oc3cccc(F)c3)cc(C(F)(F)F)n2)CC1 ?
**A:** Not fulfilled

**Q:** In plain terms: is recorded pIC50 hERG at least 6 for CNCC1(O)CCN(c2nc(Oc3cccc(F)c3)cc(C(F)(F)F)n2)CC1 ?
**A:** Not fulfilled

----------
Target: human ERG potassium channel (hERG) (Homo sapiens (Human))
Experiment: hERG channel tail current recording using Rapid ICE automated patch-clamp
Format: cell-based
Details: HEK293 cells stably transfected with hERG
Hi there, I'd appreciate the recorded pIC50 hERG for every entry that follows.
No unit in the answer, please; the number alone is enough.

The compound OC1(CNC2CC2)CCN(c2nc(Oc3cccc(F)c3)cc(C(F)(F)F)n2)CC1 showed pIC50 hERG equal to 6.0

The compound NCC1(O)CCN(c2nc(Oc3cccc(F)c3)cc(C(F)(F)F)n2)C1 (stereo not shown) showed pIC50 hERG equal to 5.8

The compound OC1(CN2CCCC2)CCN(c2nc(Oc3cccc(F)c3)cc(C(F)(F)F)n2)CC1 showed pIC50 hERG equal to 6.7

The compound NCC1(F)CCN(c2nc(Oc3cccc(F)c3)cc(C(F)(F)F)n2)CC1 showed pIC50 hERG equal to 5.4

The compound O=C(NCC1(O)CCN(c2nc(Oc3cccc(F)c3)cc(C(F)(F)F)n2)CC1)c1cnccn1 showed pIC50 hERG equal to 5.5

The compound CN(CC1(O)CCN(c2nc(Oc3cccc(F)c3)cc(C(F)(F)F)n2)CC1)C1CC1 showed pIC50 hERG equal to 6.1

The compound CC1CCC(C)N1CC1(O)CCN(c2nc(Oc3cccc(F)c3)cc(C(F)(F)F)n2)CC1 (stereo not shown) showed pIC50 hERG equal to 6.8

The compound O=C(NCC1(O)CCN(c2nc(Oc3cccc(F)c3)cc(C(F)(F)F)n2)CC1)c1cn[nH]c1 showed pIC50 hERG equal to 5.3

The compound Cl.OC1(CN2CCCNCC2)CCN(c2nc(Oc3cccc(F)c3)cc(C(F)(F)F)n2)CC1 showed pIC50 hERG equal to 5.8

The compound NCC1(O)CCN(c2cc(F)c(F)c(Oc3cccc(F)c3)c2)CC1 showed pIC50 hERG equal to 6.1
